So I've got a bunch of compounds here, and I need their Ki values.
Expressed in nM, but write only the number.

Enquiry: Please look at O=C(Nc1c(F)c(F)c(-c2cccc(OC(F)(F)F)c2)c(F)c1F)c1ccsc1C(=O)O [US20240199535, Example 4] and tell me its recorded Ki on Dihydroorotate dehydrogenase (quinone), mitochondrial (Homo sapiens, UniProt Q02127).
Sequence (Q02127 whole entry): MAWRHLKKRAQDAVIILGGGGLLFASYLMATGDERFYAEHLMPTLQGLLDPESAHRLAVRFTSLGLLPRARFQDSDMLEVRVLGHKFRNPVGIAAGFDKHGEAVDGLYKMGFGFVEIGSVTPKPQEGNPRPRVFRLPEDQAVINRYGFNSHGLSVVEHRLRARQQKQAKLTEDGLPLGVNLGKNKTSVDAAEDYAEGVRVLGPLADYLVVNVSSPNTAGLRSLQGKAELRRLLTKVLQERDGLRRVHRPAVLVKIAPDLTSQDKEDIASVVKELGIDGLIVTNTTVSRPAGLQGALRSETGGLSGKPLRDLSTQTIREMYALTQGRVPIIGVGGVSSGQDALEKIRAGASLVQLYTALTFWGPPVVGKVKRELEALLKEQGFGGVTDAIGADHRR
Return: 3.7

Enquiry: For Dihydroorotate dehydrogenase (quinone), mitochondrial (Homo sapiens, UniProt Q02127), give Ki of the listed compound: O=C(O)C1=C(C(=O)Nc2ccc(-c3cccc(OC(F)F)c3)cc2F)CCC1 [US20240199535, Example 5]
Return: 1820
